target: Recombinant human KIF18A (1-467 His-tagged) protein (Homo sapiens (Human), UniProt Q8NI77)
Sequence (Q8NI77 1-467): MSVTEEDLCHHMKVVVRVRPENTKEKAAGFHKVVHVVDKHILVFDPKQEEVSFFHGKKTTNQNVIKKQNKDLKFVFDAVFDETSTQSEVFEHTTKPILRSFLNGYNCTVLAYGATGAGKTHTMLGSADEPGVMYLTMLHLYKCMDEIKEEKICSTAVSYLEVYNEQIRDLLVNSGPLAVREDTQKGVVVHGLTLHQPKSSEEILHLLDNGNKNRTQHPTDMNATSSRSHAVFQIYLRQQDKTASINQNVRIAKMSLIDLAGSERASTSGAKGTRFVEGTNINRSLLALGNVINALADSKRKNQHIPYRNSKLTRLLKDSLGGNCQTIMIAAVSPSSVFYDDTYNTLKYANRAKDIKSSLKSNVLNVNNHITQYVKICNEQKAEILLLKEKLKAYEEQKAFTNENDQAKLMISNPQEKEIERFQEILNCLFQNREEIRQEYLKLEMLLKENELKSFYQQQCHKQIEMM
Sequence (P02550 whole entry partner): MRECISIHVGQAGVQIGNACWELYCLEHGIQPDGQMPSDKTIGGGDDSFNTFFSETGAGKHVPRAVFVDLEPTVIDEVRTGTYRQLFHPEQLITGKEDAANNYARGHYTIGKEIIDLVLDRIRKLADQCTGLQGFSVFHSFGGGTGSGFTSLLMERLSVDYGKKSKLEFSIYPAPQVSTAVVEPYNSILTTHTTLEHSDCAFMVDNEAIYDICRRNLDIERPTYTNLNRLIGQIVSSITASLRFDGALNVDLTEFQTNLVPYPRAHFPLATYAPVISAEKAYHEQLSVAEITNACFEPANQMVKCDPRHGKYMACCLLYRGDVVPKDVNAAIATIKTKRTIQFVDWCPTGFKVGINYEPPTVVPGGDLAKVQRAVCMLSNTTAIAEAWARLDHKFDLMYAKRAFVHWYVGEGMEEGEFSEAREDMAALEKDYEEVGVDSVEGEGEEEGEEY
Sequence (P02554 whole entry partner): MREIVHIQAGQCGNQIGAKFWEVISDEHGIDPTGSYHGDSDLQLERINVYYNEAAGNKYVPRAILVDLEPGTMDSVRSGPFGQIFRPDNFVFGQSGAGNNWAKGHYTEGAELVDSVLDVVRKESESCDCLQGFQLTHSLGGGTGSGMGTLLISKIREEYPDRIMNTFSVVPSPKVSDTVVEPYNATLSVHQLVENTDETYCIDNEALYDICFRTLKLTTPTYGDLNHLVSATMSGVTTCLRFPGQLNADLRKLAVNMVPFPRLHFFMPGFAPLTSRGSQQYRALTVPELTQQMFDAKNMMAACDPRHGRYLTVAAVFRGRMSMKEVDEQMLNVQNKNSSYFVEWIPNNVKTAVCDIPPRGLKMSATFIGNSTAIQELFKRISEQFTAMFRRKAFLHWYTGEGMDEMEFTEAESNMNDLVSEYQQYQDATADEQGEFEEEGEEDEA
methodSummary: KIF18A Enzyme Assay: microtubule-stimulated ATPase activity (ADP-Glo)
conditionDetails: read-out: KIF18A ATPase IC50; 30 nM KIF18A, 30 μg/mL pig microtubules, ATP at Km 75 μM, ADP-Glo luminescence
endpointName: IC50 (nM)

Previously resolved entries follow.
molecule	endpointName	unitOfMeasure	assayValue
C[C@@H]1CN(c2nccc(NC(=O)c3ccc(NS(=O)(=O)[C@@H](C)CO)cc3N3CCC4(CC3)CC4)n2)CCO1	IC50	nM	17.4
Cc1cc(NC(=O)c2ccc(NS(=O)(=O)CCO)cc2N2CCC3(CCC3)CC2)nc(N2CCC(F)(F)CC2)n1	IC50	nM	109
Cc1cc(NC(=O)c2ccc(NS(=O)(=O)CCO)cc2N2CCC3(CC2)CC3)nc(C2CC2)n1	IC50	nM	49

A: Cc1cc(NC(=O)c2ccc(NS(=O)(=O)CCO)cc2N2CCC3(CC2)CC3)nc(N2CCC3CC32)n1 (stereo not drawn)
B: Cc1cc(NC(=O)c2ccc(NS(C)(=O)=O)cc2N2CCC3(CC2)CC3)nc(N2CCO[C@H](C)C2)n1
Prompt: Of the pair A and B , name the member with the lesser recorded IC50. Let me know the label of the one you choose.
Response: A
(A: 59 nM, B: 120 nM)

a: Cc1cc(NC(=O)c2ccc(NS(=O)(=O)C3CCOC3)cc2N2CCC3(CC2)CC3)nc(N2CC(F)(F)C2)n1 (stereo in doubt)
b: Cc1cc(NC(=O)c2ccc(S(C)(=O)=O)cc2N2CCC3(CC2)CC3)nc(N[C@@H](C)CO)n1
c: C[C@H](CO)S(=O)(=O)Nc1ccc(C(=O)Nc2ccnc(N3CCC(F)(F)CC3)n2)c(N2CCC3(CC2)CC3)c1
d: Cc1cc(NC(=O)c2ccc(NS(=O)(=O)[C@H]3CCOC3)cc2N2CCC3(CC2)CC3)nc(N2CCC(F)(F)CC2)n1
Prompt: Rank the 4 molecules: largest IC50 first, smallest last. Labels, ranked as asked.
Response: b, d, a, c

I: Cc1cc(NC(=O)c2ccc(NS(=O)(=O)CF)cc2N2CCC3(CC2)CC3)nc(N2CCC(F)(F)CC2)n1
II: Cc1cc(NC(=O)c2ccc(NS(=O)(=O)CCO)cc2N2CCC3(CC2)CC3)nc(N2CC(C(F)(F)F)C2)n1
Prompt: Of I and II , whose reported IC50 is the larger number? Let me know the label of the one you choose.
Response: II
